Provide the reported S.I (CC50/IC50), L. donovani intracellular amastigote of each item.
# System: L. donovani LdBOB intracellular amastigotes in PMA differentiated THP-1 cells
# procedureDetails: Intra macrophage L. donovani (amastigote) assay in THP-1 cells
# Format: cell-based, Leishmania donovani
# settings: HeLa CC50 / L. donovani intracellular amastigote EC50
Please reply with the number alone, leaving off any unit.

Prompt line: Identify the reported S.I (CC50/IC50), L. donovani intracellular amastigote for the following entry. `Cn1c2ccccc2c2cc(C(=O)N3CCN(c4cccc(Cl)c4)CC3)nc(-c3ccccc3)c21`
Response line: 64.1

Prompt line: Please supply the value of reported S.I (CC50/IC50), L. donovani intracellular amastigote for the item `Cc1ccccc1N1CCN(C(=O)c2cc3c4ccccc4n(C)c3c(-c3ccccc3)n2)CC1`
Response line: 53.2

Prompt line: Note S.I (CC50/IC50), L. donovani intracellular amastigote for the compound shown: `Cn1c2ccccc2c2cc(C(=O)N3CCN(c4ccncc4)CC3)nc(-c3ccccc3)c21`
Response line: 4.1

Prompt line: Specify measured S.I (CC50/IC50), L. donovani intracellular amastigote for `Cn1c2ccccc2c2cc(C(=O)N3CCN(c4ccc([N+](=O)[O-])cc4)CC3)nc(-c3ccccc3)c21` .
Response line: 32.5

Prompt line: Specify S.I (CC50/IC50), L. donovani intracellular amastigote for `COc1ccc(N2CCN(C(=O)c3cc4c5ccccc5n(C)c4c(-c4ccccc4)n3)CC2)cc1` and stop.
Response line: 384.6

###

Please respond with reported EC50 for every item in the list.
# Test system: L. infantum JPCM5 MCAN/ES/98/LLM-87 axenic amastigotes
# procedureDetails: L. infantum axenic amastigote assay (Alamar blue)
# Type: cell-based, Leishmania infantum
# settings: Leishmania infantum; 72 h, Alamar blue
Use µM as the unit, but write only the number.

Prompt line: Dear colleague, please send me the reported EC50 for `COc1ccccc1N1CCN(C(=O)c2cc3c4ccccc4n(C)c3c(-c3ccccc3)n2)CC1` when you can.
Response line: 15.3

Prompt line: Using the record for `Cn1c2ccccc2c2cc(C(=O)N3CCN(c4ccc(Cl)cc4)CC3)nc(-c3ccccc3)c21` , state its measured EC50.
Response line: 1.9

Prompt line: Find the measured EC50 of CCCCCCCCCCCCCCCCOP(=O)([O-])OCC[N+](C)(C)C [Miltefosine, reference compound] and report it.
Response line: 4.8

Prompt line: State its EC50: `Cn1c2ccccc2c2cc(C(=O)N3CCN(c4ccc([N+](=O)[O-])cc4)CC3)nc(-c3ccccc3)c21`
Response line: 14.6

###

# Test system: L. donovani LdBOB intracellular amastigotes in PMA differentiated THP-1 cells
# procedureDetails: Intra macrophage L. donovani (amastigote) assay in THP-1 cells
# Type: cell-based, Leishmania donovani
# settings: Leishmania donovani, THP-1, 72 h, THP-1 macrophages, 72 h, microscopy readout
measure: pEC50
pEC50 (log units): -log10 of the concentration in mol/L.

Prompt line: Output reported pEC50 of the compound `COc1ccc(N2CCN(C(=O)c3cc4c5ccccc5n(C)c4c(-c4ccccc4)n3)CC2)cc1` on L. donovani LdBOB intracellular amastigotes in PMA differentiated THP-1 cells.
Response line: 5.85

Prompt line: Under L. donovani LdBOB intracellular amastigotes in PMA differentiated THP-1 cells: report pEC50 of `Cn1c2ccccc2c2cc(C(=O)N3CCN(c4ccc(F)cc4)CC3)nc(-c3ccccc3)c21` .
Response line: 5.00

Prompt line: # return pEC50 of `Cn1c2ccccc2c2cc(C(=O)N3CCN(c4ccc(Cl)cc4)CC3)nc(-c3ccccc3)c21` (system: L. donovani LdBOB intracellular amastigotes in PMA differentiated THP-1 cells)
Response line: 5.20

Prompt line: Print L. donovani LdBOB intracellular amastigotes in PMA differentiated THP-1 cells pEC50 for `Cn1c2ccccc2c2cc(C(=O)N3CCN(c4cccc(Cl)c4)CC3)nc(-c3ccccc3)c21` .
Response line: 5.10

Prompt line: Under L. donovani LdBOB intracellular amastigotes in PMA differentiated THP-1 cells, report pEC50 for `Cn1c2ccccc2c2cc(C(=O)N3CCN(c4ccc([N+](=O)[O-])cc4)CC3)nc(-c3ccccc3)c21`
Response line: 4.81

Prompt line: Recall the reported pEC50 of `Cc1ccccc1N1CCN(C(=O)c2cc3c4ccccc4n(C)c3c(-c3ccccc3)n2)CC1` on L. donovani LdBOB intracellular amastigotes in PMA differentiated THP-1 cells and write it down.
Response line: 5.11

Prompt line: Give pEC50 for CCCCCCCCCCCCCCCCOP(=O)([O-])OCC[N+](C)(C)C [Miltefosine, reference compound] tested on L. donovani LdBOB intracellular amastigotes in PMA differentiated THP-1 cells.
Response line: 5.19

Prompt line: Identify measured pEC50 obtained with L. donovani LdBOB intracellular amastigotes in PMA differentiated THP-1 cells for `Cn1c2ccccc2c2cc(C(=O)N3CCN(c4ccccc4Cl)CC3)nc(-c3ccccc3)c21` .
Response line: 4.66

Prompt line: For L. donovani LdBOB intracellular amastigotes in PMA differentiated THP-1 cells, give the measured pEC50 of the entry `Cn1c2ccccc2c2cc(C(=O)N3CCN(c4ccccn4)CC3)nc(-c3ccccc3)c21`
Response line: 5.03

Prompt line: Return reported pEC50 for target or system L. donovani LdBOB intracellular amastigotes in PMA differentiated THP-1 cells, item `Cn1c2ccccc2c2cc(C(=O)N3CCN(c4ccncc4)CC3)nc(-c3ccccc3)c21` .
Response line: 5.10

Prompt line: GET pEC50 where system = L. donovani LdBOB intracellular amastigotes in PMA differentiated THP-1 cells and item = `Cc1ccc(N2CCN(C(=O)c3cc4c5ccccc5n(C)c4c(-c4ccccc4)n3)CC2)cc1`
Response line: 5.14

Prompt line: Provide pEC50, tested on L. donovani LdBOB intracellular amastigotes in PMA differentiated THP-1 cells, for `Cn1c2ccccc2c2cc(C(=O)N3CCN(c4ccccc4)CC3)nc(-c3ccccc3)c21` .
Response line: 4.87

Prompt line: Output reported pEC50 of the compound `COc1ccccc1N1CCN(C(=O)c2cc3c4ccccc4n(C)c3c(-c3ccccc3)n2)CC1` on L. donovani LdBOB intracellular amastigotes in PMA differentiated THP-1 cells.
Response line: 4.93

meta.source: paper PMC6369240
